Experiment: Human HepG2 cell viability assay in 384 well format
Assay type: toxicity, cell-based
Design: dose 125 nL, time 70.5 hour; concentration not given beside the values
Conditions: HepG2 cells, read-out: Inhibition
recordedEndpoint: cytotoxicity at 70.5 h (%)
State just the number; it will be interpreted in %.

For orientation, consider the following solved cases.
INSERT INTO results (molecule, resultvalue) VALUES
  ('CCCc1noc(CCC(=O)N2CCCC(c3ccn[nH]3)C2)n1 (centres undefined)', -9.26),
  ('Cc1cc(C)n(Cc2cccc(C(=O)N3CCOCC3(C)C)c2)n1', -10),
  ('Cc1cc(C(=O)Nc2cnn(CC(F)(F)F)c2)nc(N2CCOCC2)n1', -13.4);

Moving on to another molecule below.
Recorded result, O=C(c1ccc(=O)[nH]n1)N1CCNCC1c1ccccc1 (centres undefined) , cytotoxicity at 70.5 h: -2.98

* * *

Test: Human HepG2 cell viability assay in 384 well format
Format: toxicity, cell-based
Design: dose 125 nL, time 70.5 hour; concentration not given beside the values
Settings: HepG2 cells, read-out: Inhibition
recordedEndpoint: cytotoxicity at 70.5 h (%)
Express your answer in %, writing the number without its unit.

Illustrative cases are given below, each with its answer.
INSERT INTO measurements (compound, measurementunit, resultvalue) VALUES
  ('O=C(NCCN1CCOCC1)NCC(O)c1cccc(F)c1 (configuration not stated)', '%', -3.47),
  ('O=C(C1CC1)N1CCC2(CC1)COCCN2Cc1ccc(F)cc1', '%', 0.119),
  ('CN(Cc1csc(-c2cccs2)n1)C(=O)CCn1ccccc1=O', '%', -17.2),
  ('CC[C@H]1CN(S(=O)(=O)c2ccc(OC)cc2)CC[C@H]1CC(=O)O', '%', -9.14),
  ('CN(C)C1CCN(C(=O)c2ccc(Cn3ccccc3=O)o2)CC1', '%', 1.64),
  ('Cc1nn(C)c2cnn(Cc3ccc(C(=O)NC4CC4)o3)c12', '%', -1.57),
  ('CCN1CCN(Cc2c(-c3ccco3)[nH]c3ncccc23)CC1', '%', -3.87),
  ('CCNc1cc2c(nn1)CCN(C(=O)C1Cc3ccccc3S1)C2 (configuration not stated)', '%', -6.84);

The compound listed as COc1cc(C(C)=O)ccc1OC12CCCN(CC1)C2 (configuration not stated) has a reported cytotoxicity at 70.5 h of 12.8

Value of cytotoxicity at 70.5 h reported for the compound C=C(C)CN1CCC(NC(=O)NCCc2cccc(C(N)=O)c2)CC1 is -3.95

CN(CC(=O)NCC(CCO)c1ccccc1)C(=O)OC(C)(C)C (configuration not stated) yielded cytotoxicity at 70.5 h of 27.5

cytotoxicity at 70.5 h reading for O=c1c2cccc(Cl)c2ncn1C1CCNC1 (configuration not stated) : -10.4

The reported value for O=C1CCN(C(=O)C2(c3ccc(Br)cc3)CC2)CCN1 in terms of cytotoxicity at 70.5 h is 1.42

Record summary for NC(=O)c1cnn2c1NCC(CNCC1(c3ccccc3)CCCC1)C2 (configuration not stated) : reported cytotoxicity at 70.5 h = 0.136

* * *

Assay: Human HepG2 cell viability assay in 384 well format
Format: toxicity, cell-based
Parameters: dose 125 nL, time 70.5 hour; concentration not given beside the values
Settings: HepG2 cells, read-out: Inhibition
recordedEndpoint: cytotoxicity at 70.5 h (%)
Give just the number in %; leave the unit off.

INSERT INTO assay_data (molecule, measurementunit, resultvalue) VALUES
  ('CC(C)(C)CN1CCN(CC2CC2)C(CCO)C1 (stereo not drawn)', '%', -0.19),
  ('CC(=O)NCCc1ccc(C(=O)N2CCCC2c2cnn(C)c2)cc1 (stereo not drawn)', '%', 15.1),
  ('CC1CCN(C(=O)CCN2Cc3ccccc3C[C@H]2C(N)=O)C1 (stereo partly drawn)', '%', -6.72);

// cytotoxicity at 70.5 h lookup, molecule = COC(=O)CNC(=O)C1(N(C)Cc2ccccc2)Cc2ccccc2C1 , result: -8.63
